test: Water solubility of racemic and optically active dihydropyridines, free or bound in inclusion complexes (room temperature, filtrates of saturated solutions, liquid chromatography); conditions: bound in inclusion complex with β-CD; room temperature
Where a name gives a salt, the structure may show the parent alone.

{"columns": ["MOLECULE", "Water solubility, complex. β-CD, mg/mL"],
 "data": [
  ["COC(=O)C1=C(C)NC(C)=C(C(=O)OCCN(C)Cc2ccccc2)C1c1cccc([N+](=O)[O-])c1 (racemic) [(±)nicardipine.HCl]", 54.8],
  ["COC(=O)C1=C(C)NC(C)=C(C(=O)OCCN(C)Cc2ccccc2)C1c1cccc([N+](=O)[O-])c1 (single isomer, unassigned; (+)) [(+)nicardipine.HCl]", 15.8],
  ["COC(=O)C1=C(C)NC(C)=C(C(=O)OCCN(C)Cc2ccccc2)C1c1cccc([N+](=O)[O-])c1 (single isomer, unassigned; (-)) [(-)nicardipine.HCl]", 15.6],
  ["CCOC(=O)C1=C(COCCN)NC(C)=C(C(=O)OC)C1c1ccccc1Cl (stereo not shown) [amlodipine besylate]", 10.0]
]}

---

This listing pairs compounds with measured Water solubility, complex. Me-β-CD.
experiment: Water solubility of racemic and optically active dihydropyridines, free or bound in inclusion complexes (room temperature, filtrates of saturated solutions, liquid chromatography); conditions: bound in inclusion complex with Me-β-CD; room temperature
Where a name gives a salt, the structure may show the parent alone.

{"columns": ["COMPOUND", "Water solubility, complex. Me-β-CD [mg/mL]"],
 "data": [
  ["COC(=O)C1=C(C)NC(C)=C(C(=O)OCCN(C)Cc2ccccc2)C1c1cccc([N+](=O)[O-])c1 (single isomer, unassigned; (-)) [(-)nicardipine.HCl]", 127.4],
  ["COC(=O)C1=C(C)NC(C)=C(C(=O)OCCN(C)Cc2ccccc2)C1c1cccc([N+](=O)[O-])c1 (single isomer, unassigned; (+)) [(+)nicardipine.HCl]", 133.1],
  ["COC(=O)C1=C(C)NC(C)=C(C(=O)OCCN(C)Cc2ccccc2)C1c1cccc([N+](=O)[O-])c1 (racemic) [(±)nicardipine.HCl]", 145.8],
  ["CCOC(=O)C1=C(COCCN)NC(C)=C(C(=O)OC)C1c1ccccc1Cl (stereo not shown) [amlodipine besylate]", 25.0]
]}

---

assay: Water solubility of racemic and optically active dihydropyridines, free or bound in inclusion complexes (room temperature, filtrates of saturated solutions, liquid chromatography); conditions: bound in inclusion complex with HE-β-CD (2-hydroxyethyl-cyclodextrin); room temperature
Where a name gives a salt, the structure may show the parent alone.
This listing pairs compounds with measured Water solubility, complex. HE-β-CD.

{"columns": ["COMPOUND", "Water solubility, complex. HE-β-CD [mg/mL]"],
 "data": [
  ["COC(=O)C1=C(C)NC(C)=C(C(=O)OCCN(C)Cc2ccccc2)C1c1cccc([N+](=O)[O-])c1 (racemic) [(±)nicardipine.HCl]", 53.8],
  ["COC(=O)C1=C(C)NC(C)=C(C(=O)OCCN(C)Cc2ccccc2)C1c1cccc([N+](=O)[O-])c1 (single isomer, unassigned; (-)) [(-)nicardipine.HCl]", 54.2],
  ["CCOC(=O)C1=C(COCCN)NC(C)=C(C(=O)OC)C1c1ccccc1Cl (stereo not shown) [amlodipine besylate]", 4.5],
  ["COC(=O)C1=C(C)NC(C)=C(C(=O)OCCN(C)Cc2ccccc2)C1c1cccc([N+](=O)[O-])c1 (single isomer, unassigned; (+)) [(+)nicardipine.HCl]", 52.7]
]}
